tgt: T1, recombinant human MASP1 active protease (amino acids 297-699, C-terminal His Tag) (human, UniProt P48740 297-699)
T1 sequence: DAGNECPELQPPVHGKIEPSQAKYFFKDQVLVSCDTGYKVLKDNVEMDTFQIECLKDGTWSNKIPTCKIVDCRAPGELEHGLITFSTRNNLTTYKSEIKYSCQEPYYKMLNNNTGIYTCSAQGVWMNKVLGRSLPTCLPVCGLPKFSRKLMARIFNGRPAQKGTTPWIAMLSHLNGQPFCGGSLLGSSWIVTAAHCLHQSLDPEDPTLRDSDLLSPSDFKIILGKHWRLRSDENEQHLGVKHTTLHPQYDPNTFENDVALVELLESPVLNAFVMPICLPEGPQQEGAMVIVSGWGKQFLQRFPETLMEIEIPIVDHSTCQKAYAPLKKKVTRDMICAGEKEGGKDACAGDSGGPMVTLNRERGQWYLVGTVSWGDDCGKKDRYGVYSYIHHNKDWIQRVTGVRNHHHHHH
protocol: cell-based or functional assay
Numbered stars: 1 amine (or outer) side, 2 acyl side, 3 side chain; on linkers, the order of the positions; unused ones are H or OH. Bridge positions count the residues as written; N and C are the ends. Square brackets hold non-standard residues; d marks the D form. Ends that are not written are not given here. Phe(2,3-F2) = (2S)-3-(2,3-difluorophenyl)-2-aminopropanoic acid, O=C([C@H](Cc1cccc(F)c1F)N[*:1])[*:2]; Oic = O=C(O)[C@@H]1C[C@@H]2CCCC[C@@H]2N1; aIle = CC[C@@H](C)[C@H](N)C(=O)O; Pen = CC(C)(S)[C@H](N)C(=O)O; Sar = CNCC(=O)O
Measured human MASP1 IC50 values are reported for all entries that follow.
# value in nM; strip the unit string

Consider the worked cases shown below.
Memo: [Sar]ICSRSLP[Oic]I[Pen]I[5‑Azaspiro(2.4)heptane‑1‑carboxylic acid]-OH (disulfide 3-11) [Example 419: ((N-Me)G)-IC+SRSLP-(Oic)-I-(Pen)+I-((5-Azaspiro[2.4]heptane-1-carboxylic acid)-OH] , reported human MASP1 IC50: 5.1

binder AICSRSLPP[aIle]CIPD-NH2 (disulfide 3-11; N-terminus assumed; SMILES CC[C@@H](C)[C@@H]1NC(=O)[C@@H]2CCCN2C(=O)[C@@H]2CCCN2C(=O)[C@H](CC(C)C)NC(=O)[C@H](CO)NC(=O)[C@H](CCCNC(=N)N)NC(=O)[C@H](CO)NC(=O)[C@@H](NC(=O)[C@@H](NC(=O)[C@H](C)N)[C@@H](C)CC)CSSC[C@@H](C(=O)N[C@H](C(=O)N2CCC[C@H]2C(=O)N[C@@H](CC(=O)O)C(N)=O)[C@@H](C)CC)NC1=O) [Example 346: AIC+SRSLPP-(allo-I)-C+IPD-NH2] , human MASP1 IC50 observed: 27

Given item [Sar]ICSRS[Phe(2,3-F2)]PPI[Pen]IP-NH2 (disulfide 3-11; N-terminus assumed; SMILES CC[C@H](C)[C@H](NC(=O)CNC)C(=O)N[C@H]1CSSC(C)(C)[C@@H](C(=O)N[C@H](C(=O)N2CCC[C@H]2C(N)=O)[C@@H](C)CC)NC(=O)[C@H]([C@@H](C)CC)NC(=O)[C@@H]2CCCN2C(=O)[C@@H]2CCCN2C(=O)[C@H](Cc2cccc(F)c2F)NC(=O)[C@H](CO)NC(=O)[C@H](CCCNC(=N)N)NC(=O)[C@H](CO)NC1=O) [Example 440: ((N-Me)G)-IC+SRS-((2S)-3-(2,3-difluorophenyl)-2-aminopropanoic acid)-PPI-(Pen)+IP-NH2] , the value recorded as its human MASP1 IC50 is 18

Noted for [Sar]ICSRSLPPICIPD-OH (disulfide 3-11; also: HCl salt) [Example 318: ((N-Me)G)-IC+SRSLPPIC+IPD-OH (HCl- Salt)] : its human MASP1 IC50 reads 22

Consider the record given below.
response.value for [Sar]ICSRSLP[Oic]I[Pen]IPN-OH (disulfide 3-11; N-terminus assumed; SMILES CC[C@H](C)[C@H](NC(=O)CNC)C(=O)N[C@H]1CSSC(C)(C)[C@@H](C(=O)N[C@H](C(=O)N2CCC[C@H]2C(=O)N[C@@H](CC(N)=O)C(=O)O)[C@@H](C)CC)NC(=O)[C@H]([C@@H](C)CC)NC(=O)[C@@H]2C[C@@H]3CCCC[C@@H]3N2C(=O)[C@@H]2CCCN2C(=O)[C@H](CC(C)C)NC(=O)[C@H](CO)NC(=O)[C@H](CCCNC(=N)N)NC(=O)[C@H](CO)NC1=O) [Example 454: ((N-Me)G)-IC+SRSLP-(Oic)-I-(Pen)+IPN-OH] (field: human MASP1 IC50) = 2
